Tested target: T1, 4H717-bN
T1 chain: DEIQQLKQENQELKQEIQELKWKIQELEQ
Experiment description: two-hybrid library CCNG1;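 note: natural log of median RNA to DNA barcode read ratio; higher means stronger binding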
Each entry gets criterion not met if its interaction score stays under -0.4, and criterion met if its interaction score is -0.4 or above.

Completed entries (count: 8):
>  <Binder>
DEIQQLKQENQELKQEIQELKWKIQELEQ [4H717-bN]

>  <Assigned label>
criterion met

$$$$
>  <Binder>
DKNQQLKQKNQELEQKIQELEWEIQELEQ [4H4001-bN]

>  <Assigned label>
criterion not met

$$$$
>  <Binder>
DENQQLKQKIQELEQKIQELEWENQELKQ [4H1828-bN]

>  <Assigned label>
criterion met

$$$$
>  <Binder>
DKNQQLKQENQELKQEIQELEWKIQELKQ [4H3782-bN]

>  <Assigned label>
criterion not met

$$$$
>  <Binder>
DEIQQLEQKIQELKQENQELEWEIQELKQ [4H338-bN]

>  <Assigned label>
criterion not met

$$$$
>  <Binder>
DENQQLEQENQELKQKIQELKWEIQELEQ [4H1257-bN]

>  <Assigned label>
criterion not met

$$$$
>  <Binder>
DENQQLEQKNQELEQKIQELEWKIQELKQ [4H1446-bN]

>  <Assigned label>
criterion not met

$$$$
>  <Binder>
DEIQQLKQEIQELEQKNQELEWKNQELKQ [4H568-bN]

>  <Assigned label>
criterion met

$$$$

Attention now turns to another entry.
Can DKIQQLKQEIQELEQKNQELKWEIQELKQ [4H2618-bN] be said to have interaction score at or above -0.4? criterion not met

The measured values listed here are drawn from paper PMC10397247.
